All figures here come from the supplement of paper PMC6555819.

system: PPARg DBDmut:RXRa IVT, anti-PPARg (DBD mutation: PPARg1 K132A/R137A, NR concentration 270 nM, RXRa partner concentration 90 nM); test: PBM binding z-score (relative to random genomic background probes); higher = stronger binding; sequences stand for … in GC…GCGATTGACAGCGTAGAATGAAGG
Entry flag: label 1 if PBM binding z-score reaches -0.3; label 0 if it does not.

Reference set, count: 6
item.sequence | class
TCTAGTTGGTCAGAGGTCACACACTCGAAATGCG | label 1
AGAAAGAGGTTATTAAGATCAGGGAATTGCGGTC | label 1
CTTAGCAGGCCAGGGTCACTCAAGCATTTCGCTT | label 0
ACCATTAGTTGAGACGAGGGCAACCGATAGGTTG | label 1
CGTCCAAGGTCCAAGGTCAGTGAAGAGATGACGG | label 0
CAAACTAGGTCACGAACGGTCAAAGTCGAATGAC | label 1

Ask | Form field: PBM binding z-score at least -0.3? Entry: "CGAGCGAGGGCATGAGTTGATAGCAAATGCCGAT"
Reply | label 0

Ask | Form field: PBM binding z-score at least -0.3? Entry: "TAGCCTAGGTCAGATCGGGCCAGGATACGCTATA"
Reply | label 0

Ask | Form field: PBM binding z-score at least -0.3? Entry: "CCGACTGGGGCAGCAAGGTTACCATACCATCCGG"
Reply | label 0

Ask | Form field: PBM binding z-score at least -0.3? Entry: "AGAATTAGGTTACCAAAGATCAGGGAAACGCTTG"
Reply | label 1

Ask | Form field: PBM binding z-score at least -0.3? Entry: "TCTCGAAGGACACGAAAGGTCAGAGCTCGACATC"
Reply | label 1

###

system: LXRa homodimer (NR concentration 270 nM); test: PBM binding z-score (relative to random genomic background probes); higher = stronger binding; sequences stand for … in GC…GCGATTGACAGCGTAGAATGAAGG
quantity.name: PBM binding z-score
Output spec: single numeric token, no unit.

Would you please look over these solved cases?
item.sequence | measurement
GCCACTGGGGCAAAGCAGGTTACCATAAGGTTGG | -0.633
ACAAGCAGGCCAAGGGTCACTCAAGATTAGTCCG | 0.0513
GCTCGGAGGTCAAGGTCAGAGCTTTGTCCGTAGA | 1.81

Below: the item to evaluate.
Ask | Given the sequence "CGAACTAGGTTAAGGACAGTGAATCTCCGCACGC" , write its reported PBM binding z-score.
Reply | -0.213

###

test system: RARb homodimer (NR concentration 270 nM); experiment: PBM binding z-score (relative to random genomic background probes); higher = stronger binding; sequences stand for … in GC…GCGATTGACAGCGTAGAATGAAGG
Entry flag: TRUE if PBM binding z-score reaches 3; FALSE if it does not.

Reference set, count: 5
item.sequence | class
CCGAGTAGGTTATGGGGCAGTCAGGCAACGGTGA | FALSE
CGAACTAGGTCAGAACAGGAGAGTGAAGGATGAT | FALSE
GCTAGTTGGTCAGTTAAAGGTCACACACCGGTCG | TRUE
CGTCATAGTTCAAGGTAACGTAACAGAAAGCAGC | FALSE
CCTACTGGGCCCTTCAGAGGTCATTGATCATATG | TRUE

Ask | Form field: PBM binding z-score at least 3? Entry: "CCTTACGGGTTACTGACAGGTTATAGCATTTGGA"
Reply | FALSE

Ask | Form field: PBM binding z-score at least 3? Entry: "CGAACTAGGTCATCCAGGACACTGAATACATTGA"
Reply | TRUE

Ask | Form field: PBM binding z-score at least 3? Entry: "CCTAATGGGCCACGAAAGGTCATTGATTCAGTGA"
Reply | TRUE

Ask | Form field: PBM binding z-score at least 3? Entry: "CGAACGAGGGCAAGAGTTGATAGCAAATGCCGAT"
Reply | FALSE

Ask | Form field: PBM binding z-score at least 3? Entry: "GGTGCTAGGTCAACTGATGGTCAGCTAAAGCTCG"
Reply | TRUE

Ask | Form field: PBM binding z-score at least 3? Entry: "CGAACTAGGTCACTGACAGGACAGTGAATAGTAA"
Reply | TRUE
